Test system: Streptococcus pneumoniae 1175
Type: cell-based
Conditions: Streptococcus pneumoniae 1175; microtiter broth dilution
reported-endpoint: MIC S. pneumo. 1175 (µg/mL)
Write the number in µg/mL without appending the unit.

## Input Determine its reported MIC S. pneumo. 1175: CCC1OC(=O)C(C)C(=O)C(C)C(OC2OC(C)CC(N(C)C)C2O)C(C)(OC)CC(C)C(=O)C(C)C2N(C3CN(Cc4ccc(Cl)cc4Cl)C3)C(=O)OC12C (centres unmarked)
## Output 0.125

***
## Input Please supply the value of reported MIC S. pneumo. 1175 for the item CCC1OC(=O)C(C)C(=O)C(C)C(OC2OC(C)CC(N(C)C)C2O)C(C)(OC)CC(C)C(=O)C(C)C2N(C3CN(Cc4cccc5cccnc45)C3)C(=O)OC12C (centres unmarked)
## Output 0.12

----------
Test system: Haemophilus influenzae 1218
Assay: MIC, microtiter broth dilution (NCCLS M100-S14), H. influenzae 1218 (susceptible)
Format: cell-based
Details: Haemophilus influenzae 1218
hey, just use T if measured MIC H. influenzae 1218 is less than 0.5 µg/mL, otherwise F

Examples from the recorded data:
## Input In the record for CCC1OC(=O)C(C)C(=O)C(C)C(OC2OC(C)CC(N(C)C)C2O)C(C)(OC)CC(C)C(=O)C(C)C2N(C3CN(S(=O)(=O)c4ccc(-c5nc6ccc(C)cc6s5)cc4)C3)C(=O)OC12C (stereo not shown) , is MIC H. influenzae 1218 less than 0.5 µg/mL?
## Output F

## Input Record CCC1OC(=O)C(C)C(=O)C(C)C(OC2OC(C)CC(N(C)C)C2O)C(C)(OC)CC(C)C(=O)C(C)C2N(C3CN(S(=O)(=O)c4cnc5ccccn45)C3)C(=O)OC12C (stereo not shown) : is its MIC H. influenzae 1218 strictly below 0.5 µg/mL?
## Output T

## Input Field: below-cutoff. Rule: recorded MIC H. influenzae 1218 strictly less than 0.5 µg/mL. Subject: CCC1OC(=O)C(C)C(=O)C(C)C(OC2OC(C)CC(N(C)C)C2O)C(C)(OC)CC(C)C(=O)C(C)C2N(C3CN(S(=O)(=O)c4ccc(-c5nnn(C)n5)cc4)C3)C(=O)OC12C (stereo not shown)
## Output F

Continuing:
## Input I'd appreciate it if you could check whether CCC1OC(=O)C(C)C(=O)C(C)C(OC2OC(C)CC(N(C)C)C2O)C(C)(OC)CC(C)C(=O)C(C)C2N(C3CN(C(=O)Nc4ccc5ccccc5c4)C3)C(=O)OC12C (stereo not shown) has MIC H. influenzae 1218 smaller than 0.5 µg/mL.
## Output F

## Input # strict comparison: is reported MIC H. influenzae 1218 < 0.5 µg/mL? input = CCC1OC(=O)C(C)C(=O)C(C)C(OC2OC(C)CC(N(C)C)C2O)C(C)(OC)CC(C)C(=O)C(C)C2N(C3CN(Cc4ccc5c(c4)CS(=O)(=O)C5)C3)C(=O)OC12C (stereo not shown)
## Output F

## Input Decide: MIC H. influenzae 1218 of CC[C@H]1OC(=O)[C@H](C)[C@@H](OC(=O)N2CCCC2C)[C@H](C)[C@@H](O[C@@H]2O[C@H](C)C[C@H](N(C)C)[C@H]2O)[C@](C)(OC)C[C@@H](C)C(=O)[C@H](C)[C@H]2N(CC3CN(Cc4cccc5cccnc45)C3)C(=O)O[C@]12C (stereo partly shown) strictly below 0.5 µg/mL?
## Output F

## Input For this molecule, is MIC H. influenzae 1218 lower than 0.5 µg/mL? CCC1OC(=O)C(C)C(=O)C(C)C(OC2OC(C)CC(N(C)C)C2O)C(C)(OC)CC(C)C(=O)C(C)C2N(C3CN(S(=O)(=O)c4ccc(-c5cnco5)cc4)C3)C(=O)OC12C (stereo not shown)
## Output T

## Input MIC H. influenzae 1218 under 0.5 µg/mL? Item: CCOc1ccc(S(=O)(=O)N2CC(N3C(=O)OC4(C)C(CC)OC(=O)C(C)(F)C(=O)C(C)C(OC5OC(C)CC(N(C)C)C5O)C(C)(OC)CC(C)C(=O)C(C)C34)C2)cc1C#N (stereo not shown)
## Output F

## Input is_below(MIC H. influenzae 1218, 0.5 µg/mL) for CCC1OC(=O)C(C)C(=O)C(C)C(OC2OC(C)CC(N(C)C)C2O)C(C)(OC)CC(C)C(=O)C(C)C2N(CC3CN(Cc4ccc5ccccc5c4)C3)C(=O)OC12C (stereo not shown) ?
## Output T

## Input Find out if reported MIC H. influenzae 1218 for CCC1OC(=O)C(C)C(=O)C(C)C(OC2OC(C)CC(N(C)C)C2O)C(C)(OC)CC(C)C(=O)C(C)C2N(CC3CN(Cc4cnc5cnccn45)C3)C(=O)OC12C (stereo not shown) is less than 0.5 µg/mL
## Output T

## Input Please check: MIC H. influenzae 1218 for CCC1OC(=O)C(C)C(=O)C(C)C(OC2OC(C)CC(N(C)C)C2O)C(C)(OC)CC(C)C(=O)C(C)C2N(C3CN(Cc4cccc5nccnc45)C3)C(=O)OC12C (stereo not shown) , strictly under 0.5 µg/mL or not?
## Output T

## Input Given CCC1OC(=O)C(C)C(=O)C(C)C(OC2OC(C)CC(N(C)C)C2O)C(C)(OC)CC(C)C(=O)C(C)C2N(C3CN(Cc4cccc5ncccc45)C3)C(=O)OC12C (stereo not shown) , is recorded MIC H. influenzae 1218 strictly lower than 0.5 µg/mL?
## Output F

## Input Below 0.5 µg/mL on MIC H. influenzae 1218? Entry CCC1OC(=O)C(C)C(=O)C(C)C(OC2OC(C)CC(N(C)C)C2O)C(C)(OC)CC(C)C(=O)C(C)C2N(C3CN(S(=O)(=O)c4ccc(-c5nnco5)cc4)C3)C(=O)OC12C (stereo not shown)
## Output F

## Input Is MIC H. influenzae 1218 strictly under 0.5 µg/mL for the entry CC[C@H]1OC(=O)[C@H](C)C(=O)[C@H](C)[C@@H](O[C@@H]2O[C@H](C)C[C@H](N(C)C)[C@H]2O)[C@](C)(OC)C[C@@H](C)C(=O)[C@H](C)[C@H]2N(C3CN(Cc4c(C#N)cnc5ccccc45)C3)C(=O)O[C@]12C ?
## Output F

----------
Tested on: Streptococcus pneumoniae 1095
Assay type: cell-based
Conditions: S. pneumoniae 1095 (ermB); microtiter broth dilution
reported-endpoint: MIC S. pneumo. 1095

In the examples that follow, each entry is paired with its recorded MIC S. pneumo. 1095.
## Input Look up and report measured MIC S. pneumo. 1095 for this entry: CCC1OC(=O)C(C)C(=O)C(C)C(OC2OC(C)CC(N(C)C)C2O)C(C)(OC)CC(C)C(=O)C(C)C2N(CC3CCN(Cc4nccc5ccccc45)C3)C(=O)OC12C (stereo not drawn) [11.10]
## Output <0.06 µg/mL

## Input Read off the recorded MIC S. pneumo. 1095 for CC[C@H]1OC(=O)[C@H](C)C(=O)[C@H](C)[C@@H](O[C@@H]2O[C@H](C)C[C@H](N(C)C)[C@H]2O)[C@](C)(OC)C[C@@H](C)C(=O)[C@H](C)[C@H]2N(CC3(C)CN(C(=O)c4cccc(-n5cccn5)n4)C3)C(=O)O[C@]12C.O=CO [6.21]
## Output 16 µg/mL

# input for lookup
## Input Quote MIC S. pneumo. 1095 reported for CCC1OC(=O)C(C)C(=O)C(C)C(OC2OC(C)CC(N(C)C)C2O)C(C)(OC)CC(C)C(=O)C(C)C2N(CC3CCN(Cc4cccc5nccnc45)C3)C(=O)OC12C (stereo not drawn) [Example 11.02] please.
## Output <0.06 µg/mL

----------
A collection of compounds and their measured MIC S. pneumo. 1175
Tested on: Streptococcus pneumoniae 1175
Type: cell-based
Conditions: Streptococcus pneumoniae 1175; microtiter broth dilution
Expressed in µg/mL, but write only the number.

## Input // Input: CCC1OC(=O)C(C)C(=O)C(C)C(OC2OC(C)CC(N(C)C)C2O)C(C)(OC)CC(C)C(=O)C(C)C2N(C3CN(Cc4ccc(OC)c5nccnc45)C3)C(=O)OC12C (stereo not drawn) [Example 1.105] . Output its MIC S. pneumo. 1175 only.
## Output 0.125

## Input Answer with the recorded MIC S. pneumo. 1175 for the compound listed here: CCC1OC(=O)C(C)C(=O)C(C)C(OC2OC(C)CC(N(C)C)C2O)C(C)(OC)CC(C)C(=O)C(C)C2N(C3CN(Cc4nc5ccccc5[nH]4)C3)C(=O)OC12C (stereo not drawn) [Example 1.09, (1H-benzo[d]imidazo-2-yl)methyl]
## Output 0.25

## Input Read off the recorded MIC S. pneumo. 1175 for CCC1OC(=O)C(C)C(=O)C(C)C(OC2OC(C)CC(N(C)C)C2O)C(C)(OC)CC(C)C(=O)C(C)C2N(C3CN(S(=O)(=O)c4ccc(F)cc4)C3)C(=O)OC12C (stereo not drawn) [Example 3.09, 4-fluorobenzenesulfonyl]
## Output 0.25

Next:
## Input Consider the compound CCC1OC(=O)C(C)C(=O)C(C)C(OC2OC(C)CC(N(C)C)C2O)C(C)(OC)CC(C)C(=O)C(C)C2N(CC3CN(C(=O)c4ccncc4)C3)C(=O)OC12C (stereo not drawn) [4.05] . State its measured MIC S. pneumo. 1175.
## Output 1
